Test Method Notes: MTT viability assay after treatment with Fluc mRNA/amino lipidated peptoid formulations
Type: cell-based
Assay Context: human, HeLa cells, Relative Viability (%) 2% PEG
Please respond with reported viability at 8 h, 500 ng/well for every item in the list.
Numbers only, in %.

| Compound | viability at 8 h, 500 ng/well (%) |
| --- | --- |
| CCCCCCCCN(CC(N)=O)C(=O)CN(CCCCCCCC)C(=O)CN(CCc1ccccc1)C(=O)CN(CCc1ccccc1)C(=O)CN(CCN)C(=O)CN(CCc1ccccc1)C(=O)CN(CCc1ccccc1)C(=O)CN(CCN)C(=O)CN(CCc1ccccc1)C(=O)CN(CCc1ccccc1)C(=O)CNCCN [Compound 1] | 88.1 |
| CCCCCCCCCCNCC(=O)N(CCN)CC(=O)N(CCc1ccccc1)CC(=O)N(CCc1ccccc1)CC(=O)N(CCN)CC(=O)N(CCc1ccccc1)CC(=O)N(CCc1ccccc1)CC(=O)N(CCN)CC(=O)N(CCc1ccccc1)CC(=O)N(CCc1ccccc1)CC(=O)N(CCCCCCCCCC)CC(N)=O [Compound 18] | 89.3 |
| CCCCCCCCCCN(CC(N)=O)C(=O)CN(CCCCCCCCCC)C(=O)CN(CCCCCCCCCC)C(=O)CN(CCCCCCCCCC)C(=O)CN(CCc1ccccc1)C(=O)CN(CCc1ccccc1)C(=O)CN(CC1CCNCC1)C(=O)CN(CCc1ccccc1)C(=O)CN(CCc1ccccc1)C(=O)CN(CC1CCNCC1)C(=O)CN(CCc1ccccc1)C(=O)CN(CCc1ccccc1)C(=O)CNCC1CCNCC1 [Compound 31] | 98.4 |

For every record below, what is its viability at 8 h, 500 ng/well?
1. CCCCCCCCCCN(CC(N)=O)C(=O)CN(CCCCCCCCCC)C(=O)CN(CCCCCCCCCC)C(=O)CN(CCCCCCCCCC)C(=O)CN(CCc1ccccc1)C(=O)CN(CCc1ccccc1)C(=O)CN(CCNC)C(=O)CN(CCc1ccccc1)C(=O)CN(CCc1ccccc1)C(=O)CN(CCNC)C(=O)CN(CCc1ccccc1)C(=O)CN(CCc1ccccc1)C(=O)CN(CCNC)C(=O)CN(CCc1ccccc1)C(=O)CN(CCc1ccccc1)C(=O)CNCCNC [Compound 26]
2. CCCCCCCCCCCCN(CC(N)=O)C(=O)CN(CCCCCCCCCCCC)C(=O)CN(CCc1ccccc1)C(=O)CN(CCc1ccccc1)C(=O)CN(CCN)C(=O)CN(CCc1ccccc1)C(=O)CN(CCc1ccccc1)C(=O)CN(CCN)C(=O)CN(CCc1ccccc1)C(=O)CN(CCc1ccccc1)C(=O)CNCCN [Compound 3]
3. CCCCCCCCCCN(CC(N)=O)C(=O)CN(CCCCCCCCCC)C(=O)CN(CCc1ccccc1)C(=O)CN(CCc1ccccc1)C(=O)CN(CCCN)C(=O)CN(CCc1ccccc1)C(=O)CN(CCc1ccccc1)C(=O)CN(CCCN)C(=O)CN(CCc1ccccc1)C(=O)CN(CCc1ccccc1)C(=O)CNCCCN [Compound 30]
4. CCCCCCCCCCN(CC(N)=O)C(=O)CN(CCCCCCCCCC)C(=O)CN(CCCCCCCCCC)C(=O)CN(CCCCCCCCCC)C(=O)CN(CCc1ccccc1)C(=O)CN(CCc1ccccc1)C(=O)CN(CCCN)C(=O)CN(CCc1ccccc1)C(=O)CN(CCc1ccccc1)C(=O)CN(CCCN)C(=O)CN(CCc1ccccc1)C(=O)CN(CCc1ccccc1)C(=O)CNCCCN [Compound 28]
5. CCCCCCCCCCN(CC(N)=O)C(=O)CN(CCCCCCCCCC)C(=O)CN(CCN)C(=O)CN(CCN)C(=O)CN(CCN)C(=O)CN(CCN)C(=O)CNCCN [Compound 15]
6. CCCCCCCCCCN(CC(N)=O)C(=O)CN(CCCCCCCCCC)C(=O)CN(CCCCCCCCCC)C(=O)CN(CCCCCCCCCC)C(=O)CN(CCCCCCCCCC)C(=O)CN(CCCCCCCCCC)C(=O)CN(CCCCCCCCCC)C(=O)CN(CCc1ccccc1)C(=O)CN(CCc1ccccc1)C(=O)CN(CCN)C(=O)CN(CCc1ccccc1)C(=O)CN(CCc1ccccc1)C(=O)CN(CCN)C(=O)CN(CCc1ccccc1)C(=O)CN(CCc1ccccc1)C(=O)CNCCN [Compound 23]
7. CCCCCCCCCCCCCCCCCCN(CC(N)=O)C(=O)CN(CCCCCCCCCCCCCCCCCC)C(=O)CN(CCc1ccccc1)C(=O)CN(CCc1ccccc1)C(=O)CN(CCN)C(=O)CN(CCc1ccccc1)C(=O)CN(CCc1ccccc1)C(=O)CN(CCN)C(=O)CN(CCc1ccccc1)C(=O)CN(CCc1ccccc1)C(=O)CNCCN [Compound 5]

1. 91.9
2. 95.3
3. 88
4. 92.7
5. 91.9
6. 118
7. 91.2
